- MEASUREMENT_TARGET: hCGRP receptor (CALCRL:RAMP1) (Homo sapiens, UniProt O60894+Q16602)
- Construct: host or cells: GeneBLAzer CALCRL:RAMP1-CRE-bla Freestyle 293F
- Sequence (Q16602 23-461): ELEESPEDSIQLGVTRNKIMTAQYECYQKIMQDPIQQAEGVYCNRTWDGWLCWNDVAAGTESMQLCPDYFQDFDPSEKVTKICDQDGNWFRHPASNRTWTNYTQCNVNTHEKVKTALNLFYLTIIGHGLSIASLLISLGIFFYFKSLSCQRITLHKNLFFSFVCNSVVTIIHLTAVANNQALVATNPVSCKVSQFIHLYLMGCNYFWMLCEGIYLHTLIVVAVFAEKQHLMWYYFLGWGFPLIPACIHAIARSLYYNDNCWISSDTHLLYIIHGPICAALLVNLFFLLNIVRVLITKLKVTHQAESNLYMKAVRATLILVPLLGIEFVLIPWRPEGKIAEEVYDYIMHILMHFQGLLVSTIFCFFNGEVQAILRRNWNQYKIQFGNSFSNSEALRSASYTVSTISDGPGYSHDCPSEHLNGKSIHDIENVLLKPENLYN
- Sequence (O60894 27-148): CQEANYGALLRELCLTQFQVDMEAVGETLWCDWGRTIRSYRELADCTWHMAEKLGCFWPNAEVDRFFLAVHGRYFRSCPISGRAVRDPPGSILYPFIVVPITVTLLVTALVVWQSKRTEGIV
- MEASUREMENT_DESCRIPTION: CGRP receptor antagonist activity measured by cAMP assay (HTRF)
- Assay type: cell-based
- CONDITION_SET: % MPE: percent of the maximal possible effect; agonist human α-CGRP; read-out: hCGRP-R Efficacy Antag (%) Ave
Numbered stars: 1 amine (or outer) side, 2 acyl side, 3 side chain; on linkers, the order of the positions; unused ones are H or OH. Bridge positions count the residues as written; N and C are the ends. Square brackets hold non-standard residues; d marks the D form. Peptide text beside a SMILES is read from it. * marks the point of attachment. Phe(2-CONH2) = NC(=O)c1ccccc1C[C@H](N)C(=O)O; X14 = CCN(CC)CCC[C@H](N[*:1])C(=O)[*:2]; Lys(iPr) = CC(C)NCCCC[C@H](N)C(=O)O; Picolinoyl(5-F) = O=C(c1ccc(F)cn1)*; Orn(iPr) = CC(C)NCCC[C@H](N)C(=O)O; Oxazole2carbonyl = O=C(c1ncco1)*; 3Pal = N[C@@H](Cc1cccnc1)C(=O)O; Picolinoyl = O=C(c1ccccn1)*
compounds and their reported Emax
Kindly provide the numeric value in % only, without the unit symbol.

Given the entry CCN(CC)CCC[C@@H]1NC(=O)[C@@H](NC(=O)[C@H](Cc2ccc(O)cc2)NC(=O)[C@H](NC(=O)c2ccccn2)C(C)C)CSSC[C@@H](C(=O)N[C@@H](Cc2cccnc2)C(N)=O)NC(=O)[C@H](Cc2ccccc2)NC(=O)[C@@H]2CCCN2C(=O)CNC(=O)[C@H](C(C)C)NC(=O)[C@H](CC(=O)O)NC1=O [Compound 24] (Picolinoyl-[dV]YC[X14]DVGPFC[3Pal]-NH2; disulfide 3-10) , report its measured Emax. 100

And then CC(C)NCCCC[C@@H]1NC(=O)[C@@H](NC(=O)[C@H](Cc2ccccc2C(N)=O)NC(=O)[C@H](NC(=O)c2ncco2)C(C)C)CSSC[C@@H](C(=O)N[C@@H](Cc2cccnc2)C(N)=O)NC(=O)[C@H](Cc2cccnc2)NC(=O)[C@@H]2CCCN2C(=O)CNC(=O)[C@H](C(C)C)NC(=O)[C@H](CC(=O)O)NC1=O [Compound 41] (Oxazole2carbonyl-[dV][Phe(2-CONH2)]C[Lys(iPr)]DVGP[3Pal]C[3Pal]-NH2; disulfide 3-10) , what is it? 100

And then CC(C)NCCC[C@@H]1NC(=O)[C@@H](NC(=O)[C@H](Cc2ccccc2C(N)=O)NC(=O)[C@H](NC(=O)c2ccc(F)cn2)C(C)C)CSSC[C@@H](C(=O)N[C@@H](Cc2cccnc2)C(N)=O)NC(=O)[C@H](Cc2cccnc2)NC(=O)[C@@H]2CCCN2C(=O)CNC(=O)[C@H](C(C)C)NC(=O)[C@H](CC(=O)O)NC1=O [Compound 39] ({Picolinoyl(5-F)}-[dV][Phe(2-CONH2)]C[Orn(iPr)]DVGP[3Pal]C[3Pal]-NH2; disulfide 3-10) , what is it? 100
